Recorded Ki for compounds tested on 5-hydroxytryptamine receptor 1A (Homo sapiens), drawn from a number of studies.
Record the value in nM, omitting the unit from your answer.

Some compounds with known Ki results, for comparison:
N#Cc1cccc(CNC(=O)c2cc3cccc(N4CCN(CCc5ccccn5)CC4)c3o2)c1: 0.91
COc1ccc(F)cc1C1=CCN(C[C@@H](Cc2ccccc2)N(C)C(=O)C2(C)CCCCC2)CC1: 4.9
O=C(Nc1ccc(N2CCOCC2)cc1)c1cc2cccc(N3CCN(CCc4ccccn4)CC3)c2o1: 1.3
O=C1c2oc(C3CC3)nc2CCN1CCN1CCN(c2nsc3ccccc23)CC1: 1.17

# input Param readout= Ki; system= 5-hydroxytryptamine receptor 1A (Homo sapiens); entry= COc1cc(N2CCN(CCc3ccccn3)CC2)c2oc(C(=O)N(C)C)cc2c1 ; returns value.
# output 2.8

# input What is its Ki for 5-hydroxytryptamine receptor 1A (Homo sapiens)? Entry: Cc1noc2c1C(=O)N(CCN1CCC(c3noc4ccccc34)CC1)CC2
# output 9.35

# input For 5-hydroxytryptamine receptor 1A (Homo sapiens), provide Ki of COc1cc2c(cc1O)[C@@H]1Cc3sc(CCCCl)cc3CN1CC2 please.
# output 119

# input Lab note: need Ki for CC(C)n1ncc2c1CCN(CCN1CCC(c3noc4ccccc34)CC1)C2=O on 5-hydroxytryptamine receptor 1A (Homo sapiens), anyone have it?
# output 255

---

Literature-derived Ki for UniProt P08908 follows.
Express the result in nM but write the number alone.

Consider the reported Ki for these compounds:
CC1CN(CCN2CCN(c3nsc4ccccc34)CC2)C(=O)c2cnn(C)c21 (centres unmarked): 0.24
Cc1ccc2c3c(ccc2n1)OC[C@H](CNCC1CCc2c(c4cc(F)ccc4n2C)C1)O3 (mixture of isomers): 3.65
Cn1cnc2c1CCN(CCN1CCC(c3noc4ccccc34)CC1)C2=O: 18.6
CCOC(=O)c1sc(-c2cnc(N3CCN(CCCc4c[nH]c5ccc(C#N)cc45)CC3)nc2)nc1C: 2.16
Cc1cc2c(cn1)C(=O)N(CCN1CCC(c3noc4ccccc34)CC1)CC2: 1.4
Cc1ccc2onc(C3CCN(CCN4CCc5cccnc5C4=O)CC3)c2c1: 3.44

# input # query: Ki of entry Cc1nc2c(o1)C(=O)N(CCN1CCC(c3noc4ccccc34)CC1)CCC2
# output 20.2

# input Request the reported Ki associated with Cc1ccn(-c2ccc(N3CCN(CCc4c[nH]c5ccc(C#N)cc45)CC3)cc2)c(=O)c1
# output 33

---

Recorded Ki for compounds tested on 5-hydroxytryptamine receptor 1A (Homo sapiens), drawn from a number of studies.
Lab book: enter the figure in nM, no units written.

Check out these entries, answers already filled in.
COc1ccn(-c2ccc(N3CCN(CCCCCc4c[nH]c5ccc(C#N)cc45)CC3)cc2)c(=O)c1: 12
N#Cc1ccc2[nH]cc(CCCN3CCN(c4ccc(-n5cc(F)cc(F)c5=O)cc4)CC3)c2c1: 0.31
CCn1cc2c(n1)CCN(CCN1CCN(c3nsc4ccccc34)CC1)C2=O: 2.4
O=C1CCCCN1c1ccc(N2CCN(CCCCc3c[nH]c4ccc(F)cc34)CC2)cc1: 2.5
Cn1cnc2c1C(=O)N(CCN1CCC(c3noc4ccccc34)CC1)CCC2: 65.3
COc1ccccc1N1CCN(CCN(Cc2cccc3ccccc23)C(=O)C2CCCCC2)CC1: 26
O=C(NCCN1CCC(c2cccc(C(F)(F)F)n2)CC1)C1CCOC1 (centres unmarked): 20
COc1cc2c(cn1)C(=O)N(CCN1CCN(c3nsc4ccccc34)CC1)CC2: 0.03

# input // query Ki value for entry COc1ccc2c(N3CCN(CCN4CCc5cccnc5C4=O)CC3)noc2c1
# output 184

# input Consider the compound shown here: [2H]C([2H])([2H])Oc1cc2c(cn1)C(=O)N(CCN1CCN(c3nsc4ccccc34)CC1)CC2([2H])[2H] What is its recorded Ki?
# output 0.08

# input Value lookup for Ki; key = O=c1c2cnccc2ccn1CCN1CCN(c2nsc3ccccc23)CC1
# output 2.95

# input Name the recorded Ki for O=C1c2cn(C3CC3)nc2CCN1CCN1CCC(c2noc3ccccc23)CC1 .
# output 6.48

# input Ki for O=C(NC1CC(F)(F)C1)c1cc2cccc(N3CCN(CCc4ccccn4)CC3)c2o1 ?
# output 3.3

# input Recorded Ki of COc1ncc2c(n1)CCN(CCN1CCC(c3noc4ccccc34)CC1)C2=O , please.
# output 5.1

# input Which Ki reading was recorded for the compound COc1cc(OC)c2c(c1CO)C[C@H]1c3cc4c(cc3CCN1C2)OCO4 ?
# output 600

# input Quick one: Ki of N#Cc1ccc2[nH]cc(CCCN3CCN(c4ccc(N5CCCCC5=O)cc4)CC3)c2c1 ?
# output 1.2

# input Query: Ki; subject: O=C1c2cn(-c3ccccc3)nc2CCN1CCN1CCN(c2nsc3ccccc23)CC1
# output 1.02
